The reported measurements were obtained from patent US12012457.

# assay_system: T1, extracellular domain of mouse IL23R (mIL23R ECD) (mouse, UniProt Q8K4B4 24-374)
# T1 construct: also called mIL-23 ECD antigen
# T1 sequence: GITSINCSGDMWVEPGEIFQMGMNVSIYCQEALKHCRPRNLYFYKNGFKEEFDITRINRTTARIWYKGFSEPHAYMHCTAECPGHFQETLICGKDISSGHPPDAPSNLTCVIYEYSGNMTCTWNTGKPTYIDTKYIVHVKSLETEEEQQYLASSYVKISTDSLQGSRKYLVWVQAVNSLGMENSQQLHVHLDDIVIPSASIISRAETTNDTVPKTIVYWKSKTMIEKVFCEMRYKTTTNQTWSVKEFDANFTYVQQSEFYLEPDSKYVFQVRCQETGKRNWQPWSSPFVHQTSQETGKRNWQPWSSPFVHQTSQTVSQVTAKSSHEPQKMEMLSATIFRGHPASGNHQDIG
# procedure_text: periplasmic extract ELISA (PE-ELISA), 96-well plate, colorimetric
endpoint: binding result

binder	endpoint	reported_measurement
mIL23R VHH28 (VHH) VHH: QVQLQESGGGLVQPGGSLRLSCAASGFTFRLTAMRWVRQAPGKGLEWVSGIDSRGSTIYADSVKGRFTISRDNAKNTLYLQLNSLKTEDAAMYYCAQGVYGDTYSGSQGTQVTVSS	binding result	binds
mIL23R VHH9 (VHH) VHH: QVQLQESGGGLVQPGGSLRLSCATSGFTFRLTAMRWVRQAPGKGVEWVSGIDSAGSTIYADSVKGRFTISKDNAKNTLYLQMNSLKTEDTAMYYCAQGVYGDTYSGSQGTQVTVSS	binding result	binds
mIL23R VHH15 (VHH) VHH: QVQLQESGGGSVQAGGSLRLSCAASGYTYSSCTMGWYRQAPGKERELVSMVFSDGSTFYADSVKGRFTFSQENAKNTVYLQMNSLKPEDTAMYYCGCATLGSRTIWGQGTQVTVSS	binding result	binds
mIL23R VHH7 (VHH) VHH: QVQLQESGGGLVQPGGSLRLSCAASGFTFSRSAMTWVRQAPGKGLDWVSGIDSGGTTVYADSVKGRFTISRDSAKNTLYLQMNSLKTEDTAVYYCAIGLPWGNTWRTRGQGTQVTVSS	binding result	binds
